tested on: S. aureus TASAKI; assay: MIC, S. aureus TASAKI; assay type: cell-based; conditions: Staphylococcus aureus; S. aureus TASAKI; standard method of Japanese Chemotherapy Association; read-out: MIC
Assay endpoint: MIC (µg/mL)

1. Cn1nnnc1SCC1=C(C(=O)O)N2C(=O)C(NC(=O)C(=NOCC(=O)NNC(=O)c3ccc(O)c(O)c3)c3csc(N)n3)C2SC1 (stereo not shown)    1.56
2. Cc1nnc(SCC2=C(C(=O)O)N3C(=O)C(NC(=O)C(=NOCC(=O)NNC(=O)c4ccc(O)c(O)c4)c4csc(N)n4)C3SC2)s1 (stereo not shown)    1.56
3. CN(C)CCn1nnnc1SCC1=C(C(=O)O)N2C(=O)[C@@H](NC(=O)Cc3csc(N)n3)[C@H]2SC1    0.39
4. Cn1nnnc1SCC1=C(C(=O)O)N2C(=O)C(NC(=O)C(=NOCC(=O)NN=Cc3ccc(O)c(O)c3)c3csc(N)n3)C2SC1 (stereo not shown)    1.56
